Here, each record is paired with measured interaction score data.
# Target System: T1, P6-AA-1HAA-L
# T1 chain: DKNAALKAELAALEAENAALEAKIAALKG
# Test Summary: two-hybrid library CCmax;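 further: natural log of median RNA to DNA barcode read ratio; higher means stronger binding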
# Cond: mean of both orientations
Measurement Label: interaction score

{"columns": ["Binder", "Endpoint Value"],
 "data": [
  ["DENAALEAKTAALKAKNAALKAEIAALEG [P5-AA-1HAA-T]", 1.91],
  ["DENAALEAKEAALKAKNAALKAEIAALEG [P5-AA-1HAA-E]", 0.711],
  ["DENAALEAKAAALKAKNAALKAEIAALEG [P5-AA-1HAA-A]", 1.94],
  ["DENAALEAKRAALKAKNAALKAEIAALEG [P5-AA-1HAA-R]", 2.18],
  ["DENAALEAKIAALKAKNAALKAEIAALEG [4H1401-AA]", 2.1],
  ["DENAALEAKVAALKAKNAALKAEIAALEG [P5-AA-1HAA-V]", 2.32],
  ["DENAALEAKDAALKAKNAALKAEIAALEG [P5-AA-1HAA-D]", -0.571],
  ["DENAALEAKYAALKAKNAALKAEIAALEG [P5-AA-1HAA-Y]", 1.72],
  ["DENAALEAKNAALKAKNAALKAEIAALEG [P5-AA-1HAA-N]", 1.05],
  ["DENAALEAKSAALKAKNAALKAEIAALEG [P5-AA-1HAA-S]", 1.67],
  ["DENAALEAKHAALKAKNAALKAEIAALEG [P5-AA-1HAA-H]", 1.9],
  ["DENAALEAKLAALKAKNAALKAEIAALEG [P5-AA-1HAA-L]", 2.49],
  ["DENAALEAKKAALKAKNAALKAEIAALEG [P5-AA-1HAA-K]", 1.84]
]}
